- Test system: HCT116
- Assay explanation: MTT assay, colon (HCT116)
- Format: cell-based, human
Please assign NO whenever IC50 of colon (HCT116) is at or above 20 µg/mL, and YES whenever it is below.

Criterion: IC50 of colon (HCT116) strictly below 20 µg/mL. Is it met by CC=C(C)C(=O)OCC1(C)C(O)CCC2(C)C1CCC1(C)C2CC=C2C3CC(C)(C)C(OC(=O)C(C)=CC)C(O)C3(COC(=O)C(C)=CC)C(O)CC21C (stereo not drawn) [Tig-V] ? YES

Below 20 µg/mL on IC50 of colon (HCT116)? Entry CC=C(C)C(=O)OCC1(C)C(O)CCC2(C)C1CCC1(C)C2CC=C2C3CC(C)(C)C(O)C(OC(=O)C(C)=CC)C3(CO)C(O)CC21C (stereo not drawn) [Tig-Q] NO

I'd appreciate it if you could check whether CC=C(C)C(=O)OCC1(C)C(O)CCC2(C)C1CCC1(C)C2CC=C2C3CC(C)(C)C(O)C(OC(=O)C(C)=CC)C3(COC(=O)C(C)=CC)C(O)CC21C (stereo not drawn) [Tig-T] has IC50 of colon (HCT116) smaller than 20 µg/mL. NO

Quick check: does CC=C(C)C(=O)OCC1(C)C(O)CCC2(C)C1CCC1(C)C2CC=C2C3CC(C)(C)C(O)C(O)C3(CO)C(O)CC21C (stereo not drawn) [Tig-N] have IC50 of colon (HCT116) under 20 µg/mL? YES

Does this compound meet the criterion IC50 of colon (HCT116) < 20 µg/mL? CC=C(C)C(=O)OCC1(C)C(O)CCC2(C)C1CCC1(C)C2CC=C2C3CC(C)(C)C(OC(=O)C(C)=CC)C(O)C3(CO)C(O)CC21C (stereo not drawn) [Tig-S] YES

In plain terms, does CC=C(C)C(=O)OCC1(C)C(OC(=O)C(C)=CC)CCC2(C)C1CCC1(C)C2CC=C2C3CC(C)(C)C(OC(=O)C(C)=CC)C(O)C3(CO)C(O)CC21C (stereo not drawn) [Tig-U] come in under 20 µg/mL for IC50 of colon (HCT116)? NO

----------
Would you mind telling me the reported Hey8A cells attached to flasks compared to no drug controls of each entry?
- Test system: Hey8A cells
- Assay explanation: Inhibition of cell adhesion, Hey8A
- Format: cell-based
- Experimental parameters: 5 ug/ml, 5 hours
Express the result in % but write the number alone.

Input CC=C(C)C(=O)OCC1(C)C(O)CCC2(C)C1CCC1(C)C2CC=C2C3CC(C)(C)C(OC(=O)C(C)=CC)C(O)C3(COC(=O)C(C)=CC)C(O)CC21C (centres unmarked) . Output Hey8A cells attached to flasks compared to no drug controls: 60

Reported Hey8A cells attached to flasks compared to no drug controls of CC=C(C)C(=O)OCC1(C)C(O)CCC2(C)C1CCC1(C)C2CC=C2C3CC(C)(C)C(O)C(O)C3(CO)C(O)CC21C (centres unmarked) : 60

Value of Hey8A cells attached to flasks compared to no drug controls reported for the compound CC=C(C)C(=O)OCC1(C)C(O)CCC2(C)C1CCC1(C)C2CC=C2C3CC(C)(C)C(O)C(OC(=O)C(C)=CC)C3(COC(=O)C(C)=CC)C(O)CC21C (centres unmarked) is 60

Documented Hey8A cells attached to flasks compared to no drug controls of CC=C(C)C(=O)OCC1(C)C(O)CCC2(C)C1CCC1(C)C2CC=C2C3CC(C)(C)C(OC(=O)C(C)=CC)C(O)C3(CO)C(O)CC21C (centres unmarked) : 60

Hey8A cells attached to flasks compared to no drug controls reading for CC=C(C)C(=O)OCC1(C)C(O)CCC2(C)C1CCC1(C)C2CC=C2C3CC(C)(C)C(O)C(OC(=O)C(C)=CC)C3(CO)C(O)CC21C (centres unmarked) : 60

----------
- Tested on: cancer cells
- Assay explanation: MTT cytotoxic assay of esterification products (Cytotoxicity activity)
- Format: cell-based, human
- Experimental parameters: E4A esterified with Propionyl chloride (Ppi = Propionyl), compounds isolated with HPLC
Measurement name: Cytotoxicity activity

Here are 5 molecules together with their reported answers.
Molecule | Study system | Cytotoxicity activity
CC1(C)CC2C3=CCC4C5(C)CCC(O)C(C)(CO)C5CCC4(C)C3(C)CC(OC(=O)c3ccccc3)C2(CO)C(OC(=O)c2ccccc2)C1OC(=O)c1ccccc1 (centres unmarked) | cancer cells | moderate
CC1(C)CC2C3=CCC4C5(C)CCC(O)C(C)(COC(=O)c6ccccc6)C5CCC4(C)C3(C)CC(OC(=O)c3ccccc3)C2(CO)C(O)C1O (centres unmarked) | cancer cells | moderate
CC1(C)CC2C3=CCC4C5(C)CCC(OC(=O)c6ccccc6)C(C)(COC(=O)c6ccccc6)C5CCC4(C)C3(C)CC(O)C2(CO)C(O)C1O (centres unmarked) | cancer cells | moderate
CC1(C)CC2C3=CCC4C5(C)CCC(O)C(C)(CO)C5CCC4(C)C3(C)CC(O)C2(COC(=O)c2ccccc2)C(OC(=O)c2ccccc2)C1O (centres unmarked) | cancer cells | moderate
CC1(C)CC2C3=CCC4C5(C)CCC(OC(=O)c6ccccc6)C(C)(CO)C5CCC4(C)C3(C)CC(O)C2(COC(=O)c2ccccc2)C(O)C1O (centres unmarked) | cancer cells | moderate

CC1(C)CC2C3=CCC4C5(C)CCC(O)C(C)(COC(=O)c6ccccc6)C5CCC4(C)C3(C)CC(O)C2(CO)C(OC(=O)c2ccccc2)C1O (centres unmarked) has a reported Cytotoxicity activity of moderate

Lab note: measured Cytotoxicity activity of CC1(C)CC2C3=CCC4C5(C)CCC(O)C(C)(COC(=O)c6ccccc6)C5CCC4(C)C3(C)CC(O)C2(CO)C(OC(=O)c2ccccc2)C1OC(=O)c1ccccc1 (centres unmarked) was moderate

Briefly, Cytotoxicity activity measured for CC1(C)CC2C3=CCC4C5(C)CCC(O)C(C)(COC(=O)c6ccccc6)C5CCC4(C)C3(C)CC(O)C2(CO)C(O)C1OC(=O)c1ccccc1 (centres unmarked) : moderate

response.value for CC1(C)CC2C3=CCC4C5(C)CCC(OC(=O)c6ccccc6)C(C)(COC(=O)c6ccccc6)C5CCC4(C)C3(C)CC(OC(=O)c3ccccc3)C2(COC(=O)c2ccccc2)C(OC(=O)c2ccccc2)C1O (centres unmarked) (field: Cytotoxicity activity) = weak

Quick note, Cytotoxicity activity for CC1(C)CC2C3=CCC4C5(C)CCC(O)C(C)(COC(=O)c6ccccc6)C5CCC4(C)C3(C)CC(OC(=O)c3ccccc3)C2(COC(=O)c2ccccc2)C(OC(=O)c2ccccc2)C1O (centres unmarked) landed at weak

Data point: CC1(C)CC2C3=CCC4C5(C)CCC(O)C(C)(CO)C5CCC4(C)C3(C)CC(O)C2(CO)C(OC(=O)c2ccccc2)C1OC(=O)c1ccccc1 (centres unmarked) ; Cytotoxicity activity = moderate

----------
- Test system: cancer cells
- Assay explanation: MTT cytotoxic assay of esterification products (Cytotoxicity activity)
- Type: cell-based, human
- Experimental parameters: E4A esterified with Cinnamoyl chloride (Cin = Cinnamoyl), compounds isolated with HPLC

Compound | Cytotoxicity activity
CC1(C)CC2C3=CCC4C5(C)CCC(OC(=O)C=Cc6ccccc6)C(C)(COC(=O)C=Cc6ccccc6)C5CCC4(C)C3(C)CC(OC(=O)C=Cc3ccccc3)C2(COC(=O)C=Cc2ccccc2)C(O)C1O (stereo not drawn) | weak
CC1(C)CC2C3=CCC4C5(C)CCC(O)C(C)(COC(=O)C=Cc6ccccc6)C5CCC4(C)C3(C)CC(OC(=O)C=Cc3ccccc3)C2(COC(=O)C=Cc2ccccc2)C(OC(=O)C=Cc2ccccc2)C1OC(=O)C=Cc1ccccc1 (stereo not drawn) | weak

----------
- Tested on: cancer cells
- Assay explanation: MTT cytotoxic assay of esterification products (Cytotoxicity activity)
- Type: cell-based, human
- Experimental parameters: MTT cytotoxic assay, isolated esterification products of E4A
Measurement name: Cytotoxicity activity

Known results for molecules:
Molecule | Study system | Measurement name | Reading
CC(C)=CC(=O)OCC12C(O)CC3(C)C(=CCC4C5(C)CCC(O)C(C)(CO)C5CCC43C)C1CC(C)(C)C(OC(=O)C=C(C)C)C2OC(=O)C=C(C)C (centres unmarked) | cancer cells | Cytotoxicity activity | moderate
CCCCCC(=O)OCC12C(O)CC3(C)C(=CCC4C5(C)CCC(O)C(C)(CO)C5CCC43C)C1CC(C)(C)C(O)C2OC(=O)CCCCC (centres unmarked) | cancer cells | Cytotoxicity activity | moderate
CCCCCC(=O)OCC1(C)C(O)CCC2(C)C1CCC1(C)C2CC=C2C3CC(C)(C)C(OC(=O)CCCCC)C(O)C3(CO)C(O)CC21C (centres unmarked) | cancer cells | Cytotoxicity activity | moderate
CC=C(C)C(=O)OCC1(C)C(OC(=O)C(C)=CC)CCC2(C)C1CCC1(C)C2CC=C2C3CC(C)(C)C(O)C(O)C3(CO)C(O)CC21C (centres unmarked) | cancer cells | Cytotoxicity activity | moderate
CC=C(C)C(=O)OCC1(C)C(OC(=O)C(C)=CC)CCC2(C)C1CCC1(C)C2CC=C2C3CC(C)(C)C(OC(=O)C(C)=CC)C(OC(=O)C(C)=CC)C3(COC(=O)C(C)=CC)C(OC(=O)C(C)=CC)CC21C (centres unmarked) | cancer cells | Cytotoxicity activity | none
CC(C)=CC(=O)OCC1(C)C(OC(=O)C=C(C)C)CCC2(C)C1CCC1(C)C2CC=C2C3CC(C)(C)C(OC(=O)C=C(C)C)C(OC(=O)C=C(C)C)C3(COC(=O)C=C(C)C)C(O)CC21C (centres unmarked) | cancer cells | Cytotoxicity activity | weak
CCC(CC)C(=O)OCC1(C)C(O)CCC2(C)C1CCC1(C)C2CC=C2C3CC(C)(C)C(OC(=O)C(CC)CC)C(O)C3(COC(=O)C(CC)CC)C(O)CC21C (centres unmarked) | cancer cells | Cytotoxicity activity | moderate
CC(C)=CC(=O)OCC1(C)C(O)CCC2(C)C1CCC1(C)C2CC=C2C3CC(C)(C)C(OC(=O)C=C(C)C)C(OC(=O)C=C(C)C)C3(COC(=O)C=C(C)C)C(OC(=O)C=C(C)C)CC21C (centres unmarked) | cancer cells | Cytotoxicity activity | weak
CC(C)=CC(=O)OCC1(C)C(O)CCC2(C)C1CCC1(C)C2CC=C2C3CC(C)(C)C(O)C(OC(=O)C=C(C)C)C3(CO)C(O)CC21C (centres unmarked) | cancer cells | Cytotoxicity activity | moderate
C=CCCC(=O)OCC1(C)C(O)CCC2(C)C1CCC1(C)C2CC=C2C3CC(C)(C)C(OC(=O)CCC=C)C(OC(=O)CCC=C)C3(COC(=O)CCC=C)C(OC(=O)CCC=C)CC21C (centres unmarked) | cancer cells | Cytotoxicity activity | weak

Next up:
Record CC=C(C)C(=O)OCC12C(O)CC3(C)C(=CCC4C5(C)CCC(O)C(C)(CO)C5CCC43C)C1CC(C)(C)C(O)C2O (centres unmarked) . Reported Cytotoxicity activity: moderate
